target: Norepinephrine transporter (Rattus norvegicus, UniProt Q9WTR4)
Sequence (Q9WTR4 whole entry): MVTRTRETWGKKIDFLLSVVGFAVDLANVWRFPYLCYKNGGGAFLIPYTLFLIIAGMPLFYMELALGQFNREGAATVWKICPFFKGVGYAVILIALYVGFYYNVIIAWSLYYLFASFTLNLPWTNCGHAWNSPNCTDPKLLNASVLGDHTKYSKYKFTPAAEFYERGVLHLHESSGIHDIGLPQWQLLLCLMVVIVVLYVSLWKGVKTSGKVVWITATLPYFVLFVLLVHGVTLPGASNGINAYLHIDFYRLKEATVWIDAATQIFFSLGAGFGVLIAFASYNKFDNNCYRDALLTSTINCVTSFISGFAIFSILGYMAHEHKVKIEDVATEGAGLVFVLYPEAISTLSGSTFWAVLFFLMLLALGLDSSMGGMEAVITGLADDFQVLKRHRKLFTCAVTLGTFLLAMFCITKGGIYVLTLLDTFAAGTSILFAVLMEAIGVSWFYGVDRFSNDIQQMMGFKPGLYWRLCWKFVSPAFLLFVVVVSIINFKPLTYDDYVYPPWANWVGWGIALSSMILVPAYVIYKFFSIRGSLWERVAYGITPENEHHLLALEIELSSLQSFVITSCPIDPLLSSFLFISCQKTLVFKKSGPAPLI
pIC50: −log10 of the molar value.
class 1 means recorded pIC50 is 6 or above; class 0 means it is below 6.

[[record]]
compound = "Cc1ccc(C2C[C@H]3CCC([C@H]2C(=O)Oc2ccccc2)N3C)cc1 (some centres undefined)"
discrete_label = "class 0"

[[record]]
compound = "CN1C2CC[C@@H]1CC(c1ccc(Cl)cc1)[C@@H]2C(=O)O (some centres undefined)"
discrete_label = "class 0"

[[record]]
compound = "Cc1ccc(C2C[C@H]3CCC([C@H]2c2nc(-c4ccccc4)no2)N3C)cc1 (some centres undefined)"
discrete_label = "class 1"

[[record]]
compound = "Cc1noc([C@H]2C(c3ccc(Cl)cc3)C[C@H]3CCC2N3C)n1 (some centres undefined)"
discrete_label = "class 1"

[[record]]
compound = "COC(=O)[C@@H]1C2CC[C@H](C[C@@H]1c1ccc(C)cc1)N2C"
discrete_label = "class 1"

[[record]]
compound = "CN1C2CCC1[C@@H](c1nnc(-c3ccccc3)s1)C(c1ccc(Cl)cc1)C2 (some centres undefined)"
discrete_label = "class 0"

[[record]]
compound = "CN1C2CC[C@@H]1CC(c1ccc(Cl)cc1)[C@@H]2C(=O)Oc1ccccc1 (some centres undefined)"
discrete_label = "class 0"

[[record]]
compound = "CN1C2CCC1[C@@H](c1nc(-c3ccccc3)no1)C(c1ccc(Cl)cc1)C2 (some centres undefined)"
discrete_label = "class 1"


---

Listed here: molecules with reported pIC50 for Sodium-dependent serotonin transporter (Rattus norvegicus).
pIC50: −log10 of the molar value.
RECORDED_ENDPOINT: pIC50

[[record]]
molecule = "CN1C2CCC1[C@@H](c1ncc(-c3ccccc3)o1)C(c1ccc(Cl)cc1)C2 (some centres not stated)"
recorded_endpoint = "pIC50"
recorded_value = 5.95

[[record]]
molecule = "Cc1ccc(C2C[C@H]3CCC([C@H]2c2nnc(-c4ccccc4)s2)N3C)cc1 (some centres not stated)"
recorded_endpoint = "pIC50"
recorded_value = 4.29

[[record]]
molecule = "CN1C2CCC1[C@@H](c1nnc(-c3ccccc3)s1)C(c1ccc(Cl)cc1)C2 (some centres not stated)"
recorded_endpoint = "pIC50"
recorded_value = 4.74

[[record]]
molecule = "CN1C2CC[C@@H]1CC(c1ccc(Cl)cc1)[C@@H]2C(=O)Oc1ccccc1 (some centres not stated)"
recorded_endpoint = "pIC50"
recorded_value = 5.64

[[record]]
molecule = "CN1C2CC[C@@H]1CC(c1ccc(Cl)cc1)[C@H]2c1nc2ccccc2s1 (some centres not stated)"
recorded_endpoint = "pIC50"
recorded_value = 5.28

[[record]]
molecule = "CN1C2CC[C@@H]1CC(c1ccc(Cl)cc1)[C@@H]2c1nnc(-c2ccccc2)o1 (some centres not stated)"
recorded_endpoint = "pIC50"
recorded_value = 5.48

[[record]]
molecule = "Cc1cc([C@H]2C(c3ccc(I)cc3)C[C@H]3CCC2N3C)on1 (some centres not stated)"
recorded_endpoint = "pIC50"
recorded_value = 7.44

